# experimentDescription: Half life in rat at 2 mg/kg, iv
# Assay type: ADME, organism-based
# settings: in vivo

# molecule, half-life, min
records = [
    ("COc1ccc2ncc(F)c([C@@H](O)CC[C@@H]3CCN(C4CC(c5cc(F)ccc5F)C4)C[C@@H]3C(=O)O)c2c1 (some centres undefined)", 40.8),
    ("COc1ccc2nccc([C@@H](O)CC[C@@H]3CCN(C4CC(c5ccccc5)C4)C[C@@H]3C(=O)O)c2c1 (some centres undefined)", 19.8),
    ("COc1ccc2ncc(F)c([C@@H](O)CC[C@@H]3CCN(C4CC(c5cc(F)ccc5F)C4)C[C@@H]3C(=O)O)c2n1 (some centres undefined)", 40.2),
    ("COc1ccc2ncc(F)c([C@@H](O)CC[C@@H]3CCN(C4CC(c5ccccc5)C4)C[C@@H]3C(=O)O)c2c1 (some centres undefined)", 68.4),
]
